For each of the molecules below, state its pKi.
study_target: human norepinephrine transporter (Homo sapiens, UniProt P23975)
Sequence (P23975 whole entry): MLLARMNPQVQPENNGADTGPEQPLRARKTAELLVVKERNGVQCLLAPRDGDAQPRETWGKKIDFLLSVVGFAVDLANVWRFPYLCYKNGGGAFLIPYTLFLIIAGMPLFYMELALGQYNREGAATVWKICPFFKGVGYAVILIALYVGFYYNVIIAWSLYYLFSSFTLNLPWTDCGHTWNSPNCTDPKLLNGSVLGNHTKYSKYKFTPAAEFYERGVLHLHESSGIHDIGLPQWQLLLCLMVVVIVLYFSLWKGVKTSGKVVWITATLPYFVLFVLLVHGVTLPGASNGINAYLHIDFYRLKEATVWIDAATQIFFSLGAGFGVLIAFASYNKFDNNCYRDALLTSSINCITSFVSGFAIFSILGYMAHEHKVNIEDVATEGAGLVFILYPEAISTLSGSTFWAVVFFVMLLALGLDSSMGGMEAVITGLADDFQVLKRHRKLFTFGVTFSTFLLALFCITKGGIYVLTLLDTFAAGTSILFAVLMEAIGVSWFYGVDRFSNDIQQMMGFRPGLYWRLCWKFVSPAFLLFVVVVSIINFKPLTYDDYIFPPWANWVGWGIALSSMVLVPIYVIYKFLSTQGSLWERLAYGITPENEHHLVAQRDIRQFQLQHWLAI
experiment_notes: Human norepinephrine (hNET) receptor binding, [125I]-RTI-55
test_parameters: membranes of HEK-293 cells transfected with human norepinephrine transporter cDNA; 50 pM [125I]-RTI-55; IC50 converted by Cheng-Prusoff
Structures can show the parent of a compound that is named as a salt.
One number for each entry, as −log10 of the molar value.

Take a look at these entries with their results.
>>> print(df.to_string())
                                   molecule  readout_type  obs_value
0  Cc1ccc(OC[C@H]2CCCNC2)c(Oc2c(F)ccc(F)c2F)n1 [Example 49, hydrochloride]           pKi       8.21
1   C[C@H](Oc1ccccc1OCc1ccccc1)[C@H]1CCCNC1           pKi       8.52
2  Cc1ccccc1Oc1ncccc1OC[C@H]1CCCNC1.O=C(O)/C=C/C(=O)O           pKi       8.40

Okay, here is my list. What is pKi for each of these?
1. Fc1ccc(Oc2c(F)cccc2OC[C@H]2CCCNC2)cc1
2. CCOc1ccccc1O[C@@H](C)[C@H]1CCCNC1

**Result**
1: 9.00; 2: 8.15

From: patent US20100120858A1
